- tested_on: Protein-glutamine gamma-glutamyltransferase (Homo sapiens, UniProt P21980)
- Sequence (P21980 whole entry): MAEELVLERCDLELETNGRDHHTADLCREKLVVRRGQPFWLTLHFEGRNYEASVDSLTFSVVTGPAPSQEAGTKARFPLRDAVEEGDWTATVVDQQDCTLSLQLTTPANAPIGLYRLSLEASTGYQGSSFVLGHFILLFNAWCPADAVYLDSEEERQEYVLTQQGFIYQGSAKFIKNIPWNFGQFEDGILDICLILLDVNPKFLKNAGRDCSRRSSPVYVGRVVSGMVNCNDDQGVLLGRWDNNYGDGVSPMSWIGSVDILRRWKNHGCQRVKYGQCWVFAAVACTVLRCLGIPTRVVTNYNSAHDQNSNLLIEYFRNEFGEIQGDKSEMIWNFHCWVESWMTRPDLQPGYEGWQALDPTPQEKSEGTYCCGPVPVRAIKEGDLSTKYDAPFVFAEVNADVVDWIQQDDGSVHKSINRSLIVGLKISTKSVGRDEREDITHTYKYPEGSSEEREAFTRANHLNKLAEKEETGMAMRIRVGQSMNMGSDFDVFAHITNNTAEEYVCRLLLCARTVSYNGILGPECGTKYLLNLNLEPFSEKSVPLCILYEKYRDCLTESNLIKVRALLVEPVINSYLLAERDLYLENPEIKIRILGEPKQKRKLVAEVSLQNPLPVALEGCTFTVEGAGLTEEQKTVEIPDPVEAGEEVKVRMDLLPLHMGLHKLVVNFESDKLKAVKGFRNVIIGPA
- experiment_description: Irreversible inhibition of transglutaminase 2
quantity_kind: IC50 (nM)

For this molecule ( C=CC(=O)NCCCC[C@H](NC(=O)OCc1ccc(C(C)(C)C)cc1)C(=O)O ), measured IC50 is 21000

P: C=CC(=O)NCCCC[C@H](NC(=O)OCc1ccccc1)C(=O)N1CCC(c2ccccc2)CC1
Q: C=CC(=O)NCCCC[C@H](NC(=O)OC(C)(C)C)C(=O)N1CCN(c2cccc(C)n2)CC1
// select label with min value of measured IC50 from [ P , Q ] Kindly give the label for the entry you pick.
P
(P: 54 nM, Q: 850 nM)

I: C=CC(=O)NCCCC[C@H](NC(=O)OCc1ccccc1C(F)(F)F)C(=O)O
II: C=CC(=O)NCCCC[C@H](NC(=O)OCc1ccccc1)C(=O)N1CCCCC1
// select label with min value of measured IC50 from [ I , II ] Kindly give the label for the entry you pick.
II
(II: 1200 nM, I: 3500 nM)

----------
- experiment_description: Intrinsic clearance in mouse liver microsomes at 1 uM by LC-MS/MS analysis
- Assay type: ADME, Microsome
- experimental_conditions: read-out: CLH
quantity_kind: microsomal CLint at 1 µM

For this molecule ( C=CC(=O)NCCCC[C@H](NC(=O)OCc1ccccc1)C(=O)N1CCN(c2ccccc2Cl)CC1 ), measured microsomal CLint at 1 µM is > 1390 µL/min/mg

----------
- experiment_description: Half life in mouse liver microsomes
- Assay type: ADME, Microsome
Peptide text beside a SMILES is read from it. * marks the point of attachment. Cbz = O=C(OCc1ccccc1)*; Acryloyl = C=CC(=O)*; OtBu = CC(C)(C)O*
quantity_kind: half-life (min)
Report the value in min with no unit label.

For this molecule ( C=CC(=O)NCCCC[C@H](NC(=O)OCc1ccccc1)C(=O)NCC(=O)OC(C)(C)C (Cbz-Lys(Acryloyl)-Gly-OtBu) ), measured half-life is 7
